target: T1, recombinant human MSLN ECD His-tag protein (Acro Biosystems, Catalog #MSN-H5223) (human, UniProt Q13421 296-580, limits assumed); assay: BLI (Octet Red384), antibody on AHC sensor, human MSLN-His in solution
T1 construct: extracellular domain; Bought protein; also called human MSLN protein; recombinant human MSLN-His tag; not shown: His-tag
T1 sequence (Q13421 other isoform, or with tags, fused parts or gaps limits assumed): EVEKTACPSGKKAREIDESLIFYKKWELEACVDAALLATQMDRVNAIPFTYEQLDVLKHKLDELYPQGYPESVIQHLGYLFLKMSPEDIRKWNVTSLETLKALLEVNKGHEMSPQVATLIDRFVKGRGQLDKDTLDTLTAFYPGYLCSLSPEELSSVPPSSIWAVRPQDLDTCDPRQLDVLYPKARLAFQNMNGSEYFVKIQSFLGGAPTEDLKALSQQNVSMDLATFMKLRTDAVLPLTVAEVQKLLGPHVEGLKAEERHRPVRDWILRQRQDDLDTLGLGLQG
pKd: −log10 of the molar value.
Please respond with reported pKd for every item in the list.

Value lookup for pKd; key = PR300159-8 (antibody, V domains shown, PTM removal variant of PR300159: light chain N92A) VH: QVQLVESGGGVVQPGRSLRLSCAASGFTFSSDGMNWVRQAPGKGLEWVAVIWNDGSNKYYADSVKGRFTISRDNSKNTLYLQMNSLRAEDTAVYYCARDRGPLWPLDYWGQGTLVTVSS VL: DIQMTQSPSTLSASVGDRVTITCRASQSISRWLAWYQQKPGKAPKLLIYKASSLESGVPSRFSGSGSGTEFTLTISNLQPDDFATFYCQQYASYSRTFGQGTKVEIKR
> 12.00

Moving on to the next binder: PR300159-7 (antibody, V domains shown, PTM removal variant of PR300159: light chain N92T) VH: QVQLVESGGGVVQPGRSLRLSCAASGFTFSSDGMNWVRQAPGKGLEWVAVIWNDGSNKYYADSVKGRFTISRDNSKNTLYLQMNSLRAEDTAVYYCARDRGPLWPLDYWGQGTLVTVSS VL: DIQMTQSPSTLSASVGDRVTITCRASQSISRWLAWYQQKPGKAPKLLIYKASSLESGVPSRFSGSGSGTEFTLTISNLQPDDFATFYCQQYTSYSRTFGQGTKVEIKR
> 12.00

What do you get for PR300159 (antibody, V domains shown, Parental antibody from Harbour H2L2 mice) VH: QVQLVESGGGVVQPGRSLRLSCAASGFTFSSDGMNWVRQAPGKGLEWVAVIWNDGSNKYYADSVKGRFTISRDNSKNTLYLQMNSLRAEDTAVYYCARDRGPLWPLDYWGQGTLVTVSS VL: DIQMTQSPSTLSASVGDRVTITCRASQSISRWLAWYQQKPGKAPKLLIYKASSLESGVPSRFSGSGSGTEFTLTISNLQPDDFATFYCQQYNSYSRTFGQGTKVEIKR ?
11.02
